Values from patent US20130230533A1

Hi there, I'd appreciate the recorded Kd for every entry that follows.
Target: T1, Monomeric monkey CD48-mmH (monkey)
T1 construct: Soluble monkey CD48 with a myc-myc-hexa-histidine C-terminal tag; the whole entry is the construct; also called mfCD48-mmH
T1 chain: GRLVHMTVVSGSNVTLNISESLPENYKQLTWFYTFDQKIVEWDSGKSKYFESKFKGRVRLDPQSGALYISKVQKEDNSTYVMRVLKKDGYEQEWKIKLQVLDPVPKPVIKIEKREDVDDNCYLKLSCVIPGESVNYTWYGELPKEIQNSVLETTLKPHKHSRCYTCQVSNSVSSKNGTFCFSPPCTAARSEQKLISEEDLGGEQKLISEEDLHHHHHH
Assay: SPR (Biacore), antibody captured by anti-Fc, CD48 in solution, 37 C
Give bare numbers, in nM.

[
  {
    "binder": "H4H1771P (antibody, human IgG4, V domains shown, Human IgG4 Fc (H4H)) VH: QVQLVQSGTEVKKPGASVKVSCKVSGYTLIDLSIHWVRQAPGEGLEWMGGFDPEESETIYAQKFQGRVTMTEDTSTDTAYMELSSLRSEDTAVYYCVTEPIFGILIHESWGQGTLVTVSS VL: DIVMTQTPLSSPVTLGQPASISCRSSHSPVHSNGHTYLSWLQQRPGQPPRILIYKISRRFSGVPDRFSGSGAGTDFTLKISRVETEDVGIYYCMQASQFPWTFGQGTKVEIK",
    "parameter": "Kd",
    "unit_label": "nM",
    "value": 1.34
  }
]

Hello, I would appreciate it if you could give Kd for each entry below.
1. H4H1781P (antibody, human IgG4, V domains shown, Human IgG4 Fc (H4H)) VH: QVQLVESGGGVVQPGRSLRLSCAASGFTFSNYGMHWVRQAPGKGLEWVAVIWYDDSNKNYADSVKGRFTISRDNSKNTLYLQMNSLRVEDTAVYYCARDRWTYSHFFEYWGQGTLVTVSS VL: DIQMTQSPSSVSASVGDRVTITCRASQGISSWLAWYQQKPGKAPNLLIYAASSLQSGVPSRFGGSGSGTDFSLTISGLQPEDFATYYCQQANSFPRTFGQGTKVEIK
2. H4H1713N (antibody, V domains shown, Human IgG4 Fc (H4H)) VH: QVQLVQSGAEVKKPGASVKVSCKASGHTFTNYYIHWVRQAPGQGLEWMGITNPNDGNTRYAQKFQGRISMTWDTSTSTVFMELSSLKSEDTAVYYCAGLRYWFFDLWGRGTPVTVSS VL: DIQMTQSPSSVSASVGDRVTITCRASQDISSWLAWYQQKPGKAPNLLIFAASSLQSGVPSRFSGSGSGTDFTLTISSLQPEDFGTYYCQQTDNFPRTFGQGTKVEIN

[0.875, 1.19]
